- systemUnderTest: Serine/threonine-protein kinase B-raf (Homo sapiens, UniProt P15056, V600E)
- Sequence (P15056 2-766 V600E limits assumed): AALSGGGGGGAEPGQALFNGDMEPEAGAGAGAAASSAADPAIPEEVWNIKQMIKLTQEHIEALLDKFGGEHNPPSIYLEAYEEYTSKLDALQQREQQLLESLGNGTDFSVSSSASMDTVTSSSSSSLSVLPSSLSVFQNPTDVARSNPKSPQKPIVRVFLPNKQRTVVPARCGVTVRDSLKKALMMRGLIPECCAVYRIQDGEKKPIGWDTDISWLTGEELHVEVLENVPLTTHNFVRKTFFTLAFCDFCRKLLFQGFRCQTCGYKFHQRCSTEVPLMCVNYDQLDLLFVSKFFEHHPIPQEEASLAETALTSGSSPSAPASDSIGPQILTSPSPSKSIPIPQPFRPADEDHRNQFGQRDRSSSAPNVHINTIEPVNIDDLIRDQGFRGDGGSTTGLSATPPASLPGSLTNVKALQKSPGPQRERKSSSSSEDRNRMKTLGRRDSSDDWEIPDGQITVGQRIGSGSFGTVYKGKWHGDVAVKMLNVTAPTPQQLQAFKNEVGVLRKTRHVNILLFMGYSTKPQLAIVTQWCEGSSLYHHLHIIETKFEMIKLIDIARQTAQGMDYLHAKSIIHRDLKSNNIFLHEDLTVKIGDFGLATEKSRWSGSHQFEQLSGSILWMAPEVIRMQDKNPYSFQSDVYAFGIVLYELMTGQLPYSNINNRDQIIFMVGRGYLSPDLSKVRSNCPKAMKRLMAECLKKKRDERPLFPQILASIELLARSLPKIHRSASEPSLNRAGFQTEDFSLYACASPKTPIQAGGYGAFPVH
- protocolDetails: Inhibition of B-Raf V600E mutant in human Malme-3M cells assessed as basal ERK phosphorylation
- Assay type: cell-based
pIC50: −log10 of the molar value.
Kind request: treat 6 as inclusive, so pIC50 at 6 or higher is True, anything lower is False.

Asked: Quick check: does CCCS(=O)(=O)Nc1ccc(Cl)c(Nc2ccc3ncn(C)c(=O)c3c2)c1F have pIC50 greater than or equal to 6?
Given back: True

Asked: Quick check: does CCCS(=O)(=O)Nc1ccc(F)c(Nc2ccc3ncccc3c2)c1F have pIC50 greater than or equal to 6?
Given back: False

Asked: Quick check: does CCCS(=O)(=O)Nc1ccc(F)c(Nc2ccc3ncn(Cc4ccccc4)c(=O)c3c2)c1Cl have pIC50 greater than or equal to 6?
Given back: True

Asked: Quick check: does CCCS(=O)(=O)Nc1ccc(F)c(Nc2ccc3ncn(C)c(=O)c3c2)c1Cl have pIC50 greater than or equal to 6?
Given back: True

Asked: Quick check: does CCCS(=O)(=O)Nc1ccc(F)c(Nc2ccc3ncn(-c4cnn(C)c4)c(=O)c3c2)c1Cl have pIC50 greater than or equal to 6?
Given back: True
